Biological target: T1, human TMEM106B (human, UniProt Q9NUM4 2-274)
T1 construct: Full-length, on transiently transfected HEK293 cells, or natively expressed on HeLa, U251 and A549 cells; also called huTMEM106B; huTMEM
Experiment: FACS, HEK293 transfectants;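 further: flow cytometry binding of hybridoma supernatants to HEK293 cells transiently expressing human, cyno or mouse TMEM106B, read as anti-mouse-APC median fluorescence, live cells only, 30 min on ice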
parameter_measured: fold-change over parental HEK293 (fold)

1) anti-TMEM106B antibody TM-16 (antibody, V domains shown) VH: EVQLQQSGAELVRPGASVKLSCTTSGFNIKDYYMHWVKQRTEQGLEWIGRIDPEDGETKYAPEFQGKATITSDTSSNTAFLQLSSLTSEDTAVYYCASSQPFTYWGQGTLVTVSA VL: QIVLTQSPAIMSASPGEKLTMTCSASSSLNYMYWYQQKPGSSPRLLIYDTSNLASGVPVRFSGSGSGTSYSLTISRMEAEDGATYYCQQWTSFPPTFGAGTKLELK
8.3
